Catalogue of melting point readings, one per entry.

# compound, quantity, observed.value
measured = [
    ("CC(=O)Oc1cc2c(cc1C=O)C1CCC3(C)C(O)CCC3C1CC2 (stereo unspecified)", "melting point", "73 to 75 °C"),
    ("O=C(NCC(F)F)/C(=C/c1ccc(OC(F)(F)F)cc1)NC(=O)c1ccc(OCCC(F)(F)F)cc1", "melting point", "142 to 143 °C"),
    ("O=C(c1cc(Cl)ccc1Cl)N1CCNC1=Nc1ccc(Cl)cc1Cl", "melting point", "205 to 206 °C"),
]

Which measured melting point value corresponds to `Nc1cc(-c2ccc(C(F)(F)F)cc2)no1` ? 142 to 144 °C

Look up melting point: CN1CCC(c2ccc(OC(C)(C)CO)cc2)c2ccccc21 (stereo unspecified) 92 to 94 °C

Look up melting point for this compound: `COC(=O)c1cc(S(C)(=O)=O)ccc1OC` 113 to 115 °C

Any idea what its melting point is? The compound is `CC(C)(O)Cc1ccc(NC(=O)OCc2ccccc2)cc1` 117 to 118 °C

Fill in the blank: the reported melting point of N=C(N)N1CC(c2ccccc2)C(c2ccc(Cl)cc2)=N1 (stereo unspecified) is ____. 187 to 189 °C

Endpoint output: melting point of `COc1cc(-c2nn(C)c(C#N)c2C)c(F)cc1Cl` . Value? 155 to 156 °C

Sample CCOC(=O)c1ccc(NC(=O)C(C)CS)nc1 (stereo unspecified) — what was its melting point? 58 to 61 °C

What value of melting point has been recorded for this entry: `COCCOC(=O)NCC(C)(C)N` 94 to 96 °C
